# Activity annotations
# System: Mus musculus
# MEASUREMENT DESCRIPTION: Anticonvulsant activity in Swiss albino mouse assessed as reduction of supramaximal electroshock-induced hind limb tonic extension response at 10 mg/kg, ip administered 30 mins before SME challenge measured after 1 hr
# Type: functional, Hindlimb
# CONDITION SUMMARY: route intraperitoneal
Quick reminder: number only, in s, skip the unit.

1. Cc1csc(NC(=O)c2ccccc2)c1C(=O)NN1C2=Nc3ccccc3NC(c3cccc([N+](=O)[O-])c3)C2SC1/C=C/c1ccccc1 (stereo unspecified): 15.328
2. Cc1csc(NC(=O)c2ccccc2)c1C(=O)NN1C2=Nc3ccccc3NC(c3ccccc3Cl)C2SC1/C=C/c1ccccc1 (stereo unspecified): 14.54
3. COc1ccc(C2Nc3ccccc3N=C3C2SC(/C=C/c2ccccc2)N3NC(=O)c2c(C)csc2NC(=O)c2ccccc2)cc1 (stereo unspecified): 15.328
4. Cc1csc(NC(=O)c2ccccc2)c1C(=O)NN1C2=Nc3ccccc3NC(c3ccccc3O)C2SC1/C=C/c1ccccc1 (stereo unspecified): 13.228
5. Cc1csc(NC(=O)c2ccccc2)c1C(=O)NN1C2=Nc3ccccc3NC(c3ccc(F)cc3)C2SC1/C=C/c1ccccc1 (stereo unspecified): 16.442

// below: Activity requested for another molecule
Recorded result, Cc1csc(NC(=O)c2ccccc2)c1C(=O)NN1C2=Nc3ccccc3NC(c3ccc(N(C)C)cc3)C2SC1/C=C/c1ccccc1 (stereo unspecified) , Activity: 13.355

Entry source: ChEMBL document CHEMBL1154852
